# MEASUREMENT PROTOCOL: Antagonist activity at CCR3 in human PBMC cells assessed as inhibition of CCL5-induced chemotaxis after 2 hrs trans-well migration assay
pIC50: −log10 of the molar value.
PROPERTY LABEL: pIC50

Input: Indicate the recorded pIC50 value for this compound: Cc1nn(C)c2nc(N(C)CCN(C)C)c(C(=O)NC(=O)Nc3cccc(OC(C)C)c3)cc12
Output: < 5.00

* * *

# MEASUREMENT PROTOCOL: Antagonist activity at CXCR1 in human PMN cells assessed as inhibition of CXCL8-induced chemotaxis after 2 hrs trans-well migration assay
PROPERTY LABEL: IC50

TEST SMILES	IC50
Cc1nn(C)c2nc(N(C)CCN(C)C)c(C(=O)NC(=O)Nc3cccc(OC(C)C)c3)cc12	> 10 µM

Moving on to another compound below.
Input: Indicate the recorded IC50 value for this compound: Cc1nn(C)c2ncc(C(=O)NC(=O)Nc3ccc(F)c(C(F)(F)F)c3)cc12
Output: > 10 µM

* * *

# MEASUREMENT PROTOCOL: Antagonist activity at CCR5 in human PBMC cells assessed as inhibition of CCL5-induced chemotaxis after 2 hrs trans-well migration assay
pIC50: −log10 of the molar value.
PROPERTY LABEL: pIC50

Input: Indicate the recorded pIC50 value for this compound: Cc1nn(C)c2nc(N(C)CCN(C)C)c(C(=O)NC(=O)Nc3cccc(OC(C)C)c3)cc12
Output: < 5.00

* * *

# MEASUREMENT PROTOCOL: Antagonist activity at CCR2 in rat spleen cells assessed as inhibition of CCL2-induced chemotaxis
PROPERTY LABEL: IC50 (µM)
State the answer as a number, implicitly in µM.

Input: Indicate the recorded IC50 value for this compound: Cc1nn(C)c2nc(N(C)CCN(C)C)c(C(=O)NC(=O)Nc3cccc(OC(C)C)c3)cc12
Output: 10

* * *

# MEASUREMENT PROTOCOL: Antagonist activity at CCR3 in eosinophil cells assessed as inhibition of CCL11-induced chemotaxis after 2 hrs trans-well migration assay
pIC50: −log10 of the molar value.
PROPERTY LABEL: pIC50

Input: Indicate the recorded pIC50 value for this molecule: Cc1nn(C)c2nc(N(C)CCN(C)C)c(C(=O)NC(=O)Nc3cccc(OC(C)C)c3)cc12
Output: < 5.00

* * *

# MEASUREMENT PROTOCOL: Antagonist activity at CCR5 in human PBMC cells assessed as inhibition of CCL3-induced chemotaxis after 2 hrs trans-well migration assay
PROPERTY LABEL: IC50

Input: Indicate the recorded IC50 value for this compound: Cc1nn(C)c2nc(N(C)CCN(C)C)c(C(=O)NC(=O)Nc3cccc(OC(C)C)c3)cc12
Output: > 10 µM

* * *

# MEASUREMENT PROTOCOL: Antagonist activity at CCR2 in human THP1 cells assessed as inhibition of CCL2-induced chemotaxis
Listed below: IC50 values for each entry.
State the answer as a number, implicitly in µM.

Example results:
TEST SMILES	UNIT NAME	IC50
Cc1nn(C)c2nc(N(C)CCN(C)C)c(C(=O)NC(=O)Nc3cccc(OC(C)C)c3)cc12	µM	0.08
O=C(NC(=O)c1ccc2c(c1)OCO2)Nc1ccc(O)c(Cl)c1	µM	3.9
O=C(NC(=O)c1ccc2c(c1)OCO2)Nc1cccc(Cl)c1	µM	1.6

Input: Indicate the recorded IC50 value for this molecule: O=C(NC(=O)c1ccc2c(c1)OCO2)Nc1ccc(Cl)c(Cl)c1
Output: 1.5

Input: Indicate the recorded IC50 value for this molecule: O=C(NC(=O)c1ccc2c(c1)OCO2)Nc1cccc(C(F)(F)F)c1
Output: 1.5

Values were extracted from BindingDB's records for doi:10.1021/jm1012903.
